- target desc: Beta-2 adrenergic receptor (Rattus norvegicus)
- test method notes: Binding affinity against beta-2 adrenergic receptor in rat brain using [3H]DHA
- Type: tissue-based
experimental readout: IC50

Lookup: Please supply the value of reported IC50 for the item O=C(CCCN1CCC(O)(c2ccc(Cl)cc2)CC1)c1ccc(F)cc1
Found: > 10 µM

---

- target desc: Beta-1 adrenergic receptor (Rattus norvegicus, UniProt P18090)
- Sequence (P18090 whole entry): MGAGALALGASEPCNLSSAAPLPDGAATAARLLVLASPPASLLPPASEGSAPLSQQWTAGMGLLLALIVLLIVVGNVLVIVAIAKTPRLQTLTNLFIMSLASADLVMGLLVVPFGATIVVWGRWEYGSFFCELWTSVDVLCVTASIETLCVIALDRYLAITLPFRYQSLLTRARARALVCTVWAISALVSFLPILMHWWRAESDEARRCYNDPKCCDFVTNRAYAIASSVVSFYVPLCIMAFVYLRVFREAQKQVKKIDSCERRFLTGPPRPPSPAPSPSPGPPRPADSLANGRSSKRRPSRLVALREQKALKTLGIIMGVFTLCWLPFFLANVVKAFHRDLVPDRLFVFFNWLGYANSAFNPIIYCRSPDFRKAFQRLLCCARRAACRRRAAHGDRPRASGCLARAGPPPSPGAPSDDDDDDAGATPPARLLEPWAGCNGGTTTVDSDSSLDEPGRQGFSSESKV
- test method notes: Binding affinity against beta-1 adrenergic receptor in rat brain using [3H]DHA
- Format: tissue-based
pIC50: −log10 of the molar value.
experimental readout: pIC50

Lookup: For Beta-1 adrenergic receptor (Rattus norvegicus, UniProt P18090), give the measured pIC50 of the entry Cc1nn(C)c(NC(=O)CNCCCN2CCCCC2C)c1C(=O)c1ccccc1F (stereo unspecified)
Found: < 5.00

---

- target desc: Adenosine receptor A1 (Rattus norvegicus, UniProt P25099)
- Sequence (P25099 whole entry): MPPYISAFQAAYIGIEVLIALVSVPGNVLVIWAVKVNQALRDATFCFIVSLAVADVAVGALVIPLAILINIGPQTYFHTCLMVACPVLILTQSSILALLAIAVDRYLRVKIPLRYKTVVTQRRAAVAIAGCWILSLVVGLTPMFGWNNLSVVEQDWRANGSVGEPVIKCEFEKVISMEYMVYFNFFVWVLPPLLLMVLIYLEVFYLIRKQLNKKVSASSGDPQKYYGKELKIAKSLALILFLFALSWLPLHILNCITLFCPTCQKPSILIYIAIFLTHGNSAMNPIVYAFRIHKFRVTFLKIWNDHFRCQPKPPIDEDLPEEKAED
- test method notes: Binding affinity towards adenosine A1 receptor using [3H]- CHA
pIC50: −log10 of the molar value.
experimental readout: pIC50

Lookup: Please supply the value of reported pIC50 for the item Cc1nn(C)c(N)c1C(=O)c1ccccc1F
Found: < 5.00

Okay, now this molecule:
Lookup: Please supply the value of reported pIC50 for the item CCN(CC)CC(=O)Nc1c(C(=O)c2ccccc2F)c(C)nn1C
Found: < 5.00

---

- target desc: Beta-2 adrenergic receptor (Rattus norvegicus, UniProt P10608)
- Sequence (P10608 whole entry): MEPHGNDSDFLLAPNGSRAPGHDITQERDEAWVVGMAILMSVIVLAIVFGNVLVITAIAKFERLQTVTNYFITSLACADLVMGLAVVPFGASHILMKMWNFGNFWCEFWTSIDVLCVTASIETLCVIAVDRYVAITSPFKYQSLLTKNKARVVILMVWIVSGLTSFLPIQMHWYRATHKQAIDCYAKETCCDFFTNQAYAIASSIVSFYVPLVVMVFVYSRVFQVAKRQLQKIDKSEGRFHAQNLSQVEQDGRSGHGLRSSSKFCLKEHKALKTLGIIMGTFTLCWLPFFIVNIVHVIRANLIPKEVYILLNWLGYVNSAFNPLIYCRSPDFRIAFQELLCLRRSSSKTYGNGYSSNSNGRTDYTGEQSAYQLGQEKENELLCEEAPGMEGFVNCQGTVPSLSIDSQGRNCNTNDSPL
- test method notes: Binding affinity against the beta-2 adrenergic receptor using [3H]- DHA
experimental readout: IC50

Lookup: Please supply the value of reported IC50 for the item CCN(CC)CC(=O)Nc1c(C(=O)c2ccccc2F)c(C)nn1C
Found: > 10 µM

---

Give measured IC50 for each item. Keep answers brief.
- target desc: GABA-A receptor; anion channel
- test method notes: Displacement of [3H]GABA from rat brain Gamma-aminobutyric acid receptor

List IC50 for every entry below, keeping the order given.
1. Cc1nn(C)c(N)c1C(=O)c1ccccc1F
2. Cc1nn(C)c(NC(=O)CNCCCN2CCCCC2C)c1C(=O)c1ccccc1F (configuration not stated)

Found:
> 10 µM
> 10 µM

---

- target desc: Beta-2 adrenergic receptor (Rattus norvegicus, UniProt P10608)
- test method notes: Binding affinity against beta-2 adrenergic receptor in rat brain using [3H]DHA
- Assay type: tissue-based
experimental readout: IC50

Lookup: Please supply the value of reported IC50 for the item CN1CCN(C2=Nc3cc(Cl)ccc3Nc3ccccc32)CC1
Found: > 10 µM

***
Lookup: Please supply the value of reported IC50 for the item Cc1nn(C)c(NC(=O)CNCCCN2CCCCC2C)c1C(=O)c1ccccc1F (configuration not stated)
Found: > 10 µM
